Tested on: Fusobacterium nucleatum
ASSAY_INFO: Ratio of antibacterial (Fusobacterium nucleatum) activities compared to that of trimethoprim and metronidazole
Format: functional
The following molecules are shown together with reported MIC values.
ASSAY_READOUT: MIC (µg/mL)

1) C=CCc1cc(Cc2cnc(N)nc2N)cc(CC=C)c1O = 0.8
2) C=CCOc1cc(Cc2cnc(N)nc2N)cc(OC)c1OC = 0.8
3) C=CCc1cc(Cc2cnc(N)nc2N)cc(CCC)c1O = 0.4
4) C=CCc1cc(Cc2cnc(N)nc2N)cc(OC)c1OC = 0.4

* * *

Reported MIC is given for each of the following compounds.
Test system: Shigella flexneri
ASSAY_INFO: Antibacterial (Shigella flexneri CN6007) activity compared to trimethoprim.
Format: functional
ASSAY_READOUT: MIC (µg/mL)

1. C=CCOc1cc(Cc2cnc(N)nc2N)cc(OC)c1OC = 10
2. C=CCc1cc(Cc2cnc(N)nc2N)cc(OC)c1OC = 10
3. CCCOc1cc(Cc2cnc(N)nc2N)cc(OC)c1OC = 10
4. C=CCc1cc(Cc2cnc(N)nc2N)cc(CC=C)c1O = 50
5. CCOc1cc(Cc2cnc(N)nc2N)cc(OC)c1OC = 1
6. C=CCc1cc(Cc2cnc(N)nc2N)cc(OC)c1O = 1
7. C/C=C/c1cc(Cc2cnc(N)nc2N)cc(OC)c1OC = 10
8. C/C=C/c1cc(Cc2cnc(N)nc2N)cc(CCC)c1OC = 100
9. CCCc1cc(Cc2cnc(N)nc2N)cc(OC)c1OC = 10

The reported numbers originate from ChEMBL document CHEMBL1124568.
